- SUBJECT_OF_TEST: T1, hBMPR1B-His (human BMPR1B extracellular domain, residues K14 to R126, with C-terminal 9x-Histidine tag) (human, UniProt O00238 14-126)
- T1 construct: Residues K14-R126 are counted on the hBMPR1B ORF (NM_001203); The IgK signal peptide of the vector is left out; also called hBMPR1B-CHis; human BMPR1B-his
- T1 sequence: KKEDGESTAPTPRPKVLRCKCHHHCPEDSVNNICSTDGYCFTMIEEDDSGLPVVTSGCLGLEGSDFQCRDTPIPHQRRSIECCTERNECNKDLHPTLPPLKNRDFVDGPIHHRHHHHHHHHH
- ASSAY_PROCEDURE: Biacore

| BINDER | Kd / nM |
| --- | --- |
| SC91.149 (antibody, V domains shown) VH: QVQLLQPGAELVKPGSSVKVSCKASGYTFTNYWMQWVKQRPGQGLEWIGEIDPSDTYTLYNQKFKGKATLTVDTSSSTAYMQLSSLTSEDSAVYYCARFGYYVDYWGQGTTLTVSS VL: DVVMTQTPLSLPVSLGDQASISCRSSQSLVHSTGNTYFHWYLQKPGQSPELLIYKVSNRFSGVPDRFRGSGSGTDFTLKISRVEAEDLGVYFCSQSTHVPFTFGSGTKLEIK | 1.03 |
| SC91.155 (antibody, V domains shown) VH: QIQLVQSGPELKKPGETVKISCKASGYTFTTYGMNWVKQAPGKGLKWMGWINSYSGVPAYADDFKGRFAFSLETFASTAYLQINNLRDEDTATYFCARSELRNWYFDVWGTGTTVTVSS VL: SFVMTQTPKFLLVSAGDRVTITCKASQNLGNDVAWYQQKPGQSPRLLIYFASNRYTGVPDRFTGSGYGTDFTFTISTVQAEDLAVYFCQQDYSSPFTFGSGTKLEIK | 1.12 |
| SC91.129 (antibody, V domains shown, copies: 2 + 2) VH: QVQLQQPGAELVKPGASVKLSCKASGYTFTNYWMQWVKQRPGQGLEWIGEIDPSDRYTLYNQKFKDKATLTVDTSSSTAYMQLSSLTSEDSAVYYCARFGYYVDYWGQGTTLTVSS VL: DAVMTQSPLSLPVSLGDQASISCRSSQSLVHSTGNTYLHWYLQKPGQSPKLLIYKVSNRFSGVPDRFSGSGSGTDFTLKISRVEAEDLGVYFCSQTTHVPFTFGSGTKLEIK | 0.564 |
| SC91.111 (antibody, V domains shown, copies: 2 + 2) VH: QIQLVQSGPELKKPGETVKISCKASGYTLTTYGMNWVKQAPGKGLKWMGWINTYSGVPAYADDFKGRFAFSLETSASTAYLQINNFKNEDTATYFCARSELRNWYFDVWGTGTTVTVSS VL: SFVMTQTPKFLLVSAGDRVTITCKASQNMGHNVAWYQQKPGQSPKLLIYYASNRYTGVPDRFTGSGYGTDFTFTISTVQAEDLAVYFCQQDYSSPFTFGSGTKLEIK | 6.67 |
